meta.source: patent EP0666077A1

Tested on: S. aureus (MRSA) -381
Assay: Anti-bacterial activity test 1: minimum growth inhibiting concentration (MIC)
Assay type: cell-based
Conditions: Staphylococcus aureus, strain -381 (PRC series), read-out: Anti-bacterial activity against MRSA MIC
Experimental: Minimum growth inhibiting concentration (MIC) of the compound represented by the general formula (I) was determined against some typical MRSA strains.
PARAMETER MEASURED: MIC (µg/mL)

Record excerpt, results attached:
>  <MOLECULE>
Clc1ccc(COC(Cn2ccnc2)c2ccccc2Cl)cc1 (centres unmarked) [o-Cl, H, p-Cl, H]

>  <UNIT OF MEASUREMENT>
µg/mL

>  <RESULT NUMBER>
12.5

$$$$
>  <MOLECULE>
Clc1ccc(COC(Cn2ccnc2)c2ccc(Cl)cc2)cc1 (centres unmarked) [p-Cl, H, p-Cl, H]

>  <UNIT OF MEASUREMENT>
µg/mL

>  <RESULT NUMBER>
25

$$$$
>  <MOLECULE>
Clc1ccc(C(Cn2ccnc2)OCc2ccccc2Cl)cc1 (centres unmarked) [p-Cl, H, o-Cl, H]

>  <UNIT OF MEASUREMENT>
µg/mL

>  <RESULT NUMBER>
25

$$$$

[a] Clc1ccccc1COC(Cn1ccnc1)c1ccccc1Cl (centres unmarked) [o-Cl, H, o-Cl, H]
[b] Clc1ccccc1C(Cn1ccnc1)OCc1ccccc1 (centres unmarked) [o-Cl, H, H, H]
In: Between item a and item b , which reported MIC is smaller? Your answer should be the label attached to the chosen record.
Out: a
